Test system: T47D
Experiment: NCI tumour cell line growth inhibition, 48 h
Activity calls are given as the source filed them. Cut-off read from the data, not from the text of the source: active = GI50 up to about 1.1 µM and inactive = higher.

{"columns": ["MOLECULE", "GI50"],
 "data": [
  ["CC1CCC/C1=C(/I)C(=O)c1ccccc1 (stereo unspecified)", "> 100 µM (inactive)"],
  ["CC(C)OP(=O)(OC(C)C)C(C)(C)O", "> 100 µM (inactive)"],
  ["Cc1cc(N(CCCCl)CCCCl)ccc1/C=N/c1cccc(Cl)c1", "0.45 µM (active)"],
  ["OC(CC(CC(O)(C(F)(F)F)C(F)(F)F)=NN=C(CC(O)(C(F)(F)F)C(F)(F)F)CC(O)(C(F)(F)F)C(F)(F)F)(C(F)(F)F)C(F)(F)F", "> 10 µM (inactive)"],
  ["NC1=CN(Cc2ccccc2)C2=N/C(=C\\c3ccco3)C(=O)N12", "> 100 µM (inactive)"],
  ["Oc1ccccc1/C=N/c1nc2cc3sc(/N=C/c4ccccc4O)nc3cc2s1", "> 61.1 µM (inactive)"]
]}

====

Test system: NCI-H23
Test: NCI tumour cell line growth inhibition, 48 h
Activity calls are given as the source filed them. Cut-off read from the data, not from the text of the source: active = GI50 up to about 1.1 µM and inactive = higher.
Labels: active, inactive

{"columns": ["COMPOUND", "CLASS ASSIGNMENT"],
 "data": [
  ["O=C1/C(=N/c2ccccc2)Oc2cc(O)ccc21", "inactive"],
  ["CCCCCCCCCCCCCCCC(=O)NC1CCc2cc(O)c(O)c(O)c2-c2ccc(SC)c(=O)cc21 (stereo not given)", "inactive"],
  ["CCOc1cc(/C=N\\O)cc(/C=N/O)c1O", "inactive"],
  ["CN(C)CCNC(=O)Cn1cnc2cccc([N+](=O)[O-])c2c1=O", "inactive"],
  ["COC12C(COC(=O)NCCO)C3=C(C(=O)C(C)=C(N)C3=O)N1CC1NC12 (stereo not given)", "inactive"],
  ["CCN(CC)CCN1CCN=c2c3cc(OC)ccc3n3cnc4ccc1c2c43", "active"],
  ["O=C(N/C(=C\\c1ccc2c(c1)OCO2)c1nc2ccccc2[nH]1)c1ccccc1", "inactive"],
  ["C=C1CC(C)(COc2ccc3c(C)cc(=O)oc3c2)OC1=O (stereo not given)", "inactive"],
  ["CC1CNC(c2ccc(CN3CCC(CCCC4CCN(Cc5ccc(C6=NC(C)CN6)cc5)CC4)CC3)cc2)=N1 (stereo not given)", "inactive"],
  ["O=C1C2=Cc3ccccc3OC2(O)Oc2cc(O)ccc21 (stereo not given)", "inactive"],
  ["COC(=O)[C@H](Cc1ccccc1)NC(=O)CCCCCCC(=O)NO", "inactive"],
  ["O=Cc1[nH]c(=O)[nH]c(=O)c1CCl", "inactive"],
  ["Cn1cnc([N+](=O)[O-])c1Sc1nnnn1C", "inactive"],
  ["OCC1OC(n2ccc3cnccc32)CC1O (stereo not given)", "inactive"],
  ["Cc1ccc(C(=O)OC[C@H]2CC[C@@H](n3cc(N(C)C4CCCCC4)c(=O)[nH]c3=O)O2)cc1", "inactive"],
  ["C[C@H]1[C@H]2[C@H](C[C@@]3(C)C4=CC[C@H]5C(C)(C)[C@@H](OC6OCC(O)C(O)C6O)CC[C@@]56C[C@@]46CC[C@]23C)O[C@@]2(O)[C@@H]1OC(C)(C)[C@H]2O (stereo not given in full)", "active"],
  ["C=C1C(=O)O[C@H]2C1C[C@@H](O)[C@@]1(C)OC1CC[C@@]1(C)O[C@H]21 (stereo not given in full)", "inactive"],
  ["CC(NC(=O)c1ccccc1)(C(=O)O)C(=O)O", "inactive"],
  ["Cc1cn(S(=O)(=O)c2ccccc2)c2c(OCc3ccccc3)cc([N+](=O)[O-])cc12", "inactive"],
  ["O=[N+]([O-])c1cc([N+](=O)[O-])c(Nn2c3ccccc3c3ccccc32)c([N+](=O)[O-])c1", "inactive"]
]}
